Hi there, I'd appreciate the recorded viability at 50 µM for every entry that follows.
Tested on: HeLa
Experiment Summary: Cytotoxicity against Homo sapiens (human) HeLa cells assessed as cell viability at 50 uM by MTT assay
Type: functional
Stated Conditions: read-out: Activity

Example compounds with recorded viability at 50 µM:
Entry O=c1c(Cc2ccccc2)cc(-c2ccccc2)nn1CCCN1CCN(c2ccccc2)CC1 , system HeLa: what viability at 50 µM was measured?
79.6%

Entry CCN1CCN(CCCn2nc(-c3ccccc3)cc(Cc3cccs3)c2=O)CC1 , system HeLa: what viability at 50 µM was measured?
45.2%

Entry O=c1c(Cc2ccccn2)cc(-c2ccccc2)nn1CCCN1CCOCC1 , system HeLa: what viability at 50 µM was measured?
73.1%

Entry O=c1c(Cc2ccco2)cc(-c2ccccc2)nn1CCCN1CCN(Cc2ccccc2)CC1 , system HeLa: what viability at 50 µM was measured?
72.5%

Entry O=c1c(Cc2ccco2)cc(-c2ccccc2)nn1CCCN1CCOCC1 , system HeLa: what viability at 50 µM was measured?
70.3%

Entry O=c1c(Cc2cccs2)cc(-c2ccccc2)nn1CCCN1CCN(c2ccccc2)CC1 , system HeLa: what viability at 50 µM was measured?
81.6%

Entry O=c1c(Cc2ccco2)cc(-c2ccccc2)nn1CCCN1CCN(c2cccc(Cl)c2)CC1 , system HeLa: what viability at 50 µM was measured?
70.1%

Entry CCN1CCN(CCCn2nc(-c3ccccc3)cc(Cc3ccccc3)c2=O)CC1 , system HeLa: what viability at 50 µM was measured?
65.1%

Quick one: give me viability at 50 µM for each item below, same order please.
1. O=c1c(Cc2ccco2)cc(-c2ccccc2)nn1CCCN1CCN(c2ccccc2)CC1
2. O=c1c(Cc2cccs2)cc(-c2ccccc2)nn1CCCN1CCOCC1
3. O=c1c(Cc2ccccc2)cc(-c2ccccc2)nn1CCCN1CCN(c2cccc(Cl)c2)CC1
4. O=c1c(Cc2ccccc2)cc(-c2ccccc2)nn1CCCN1CCOCC1

["75%", "78.7%", "72.1%", "81.9%"]

Quick one: give me viability at 50 µM for each item below, same order please.
1. CCN1CCN(CCCn2nc(-c3ccccc3)cc(Cc3ccccn3)c2=O)CC1
2. O=c1c(Cc2ccccn2)cc(-c2ccccc2)nn1CCCN1CCN(c2ccccc2)CC1
3. O=c1c(Cc2ccccn2)cc(-c2ccccc2)nn1CCCN1CCN(c2cccc(Cl)c2)CC1
4. O=c1c(Cc2cccs2)cc(-c2ccccc2)nn1CCCN1CCN(c2cccc(Cl)c2)CC1
5. CCN1CCN(CCCn2nc(-c3ccccc3)cc(Cc3ccco3)c2=O)CC1
6. O=c1c(Cc2ccccn2)cc(-c2ccccc2)nn1CCCN1CCN(Cc2ccccc2)CC1
7. O=c1c(Cc2cccs2)cc(-c2ccccc2)nn1CCCN1CCN(Cc2ccccc2)CC1

1. 70.5%
2. 78.2%
3. 75.3%
4. 67%
5. 68.4%
6. 71.9%
7. 80.4%

Entry O=c1c(Cc2ccccc2)cc(-c2ccccc2)nn1CCCN1CCN(Cc2ccccc2)CC1 , system HeLa: what viability at 50 µM was measured?
67.9%
